Reference source: patent US20200325543A1

system: SOX2; assay: Screen of a library of FDA-approved drugs for SOX2 antibody staining in A375 cells treated with PLX4720 and AZD6244; conditions: Z-test against negative controls (DMSO); single dose 5 uM
Counter-ions that a name gives are not always drawn.
z under 5 gets criterion met, anything at or over 5 gets criterion not met.

- COMPOUND: "Cc1ccc(-c2nc3ccc(C)cn3c2CC(=O)N(C)C)cc1"
  GROUP_LABEL: "criterion met"
- COMPOUND: "CCN(CC)Cc1cc(Nc2ccnc3cc(Cl)ccc23)ccc1O [AMODIAQUINE DIHYDROCHLORIDE]"
  GROUP_LABEL: "criterion not met"
- COMPOUND: "Oc1cc(Cl)ccc1Oc1ccc(Cl)cc1Cl"
  GROUP_LABEL: "criterion met"
- COMPOUND: "Cc1ccc(C(=O)Nc2ccc(CN3CCN(C)CC3)c(C(F)(F)F)c2)cc1C#Cc1cnc2cccnn12"
  GROUP_LABEL: "criterion not met"
- COMPOUND: "C[C@H]1O[C@@H](O[C@H]2[C@@H](O)C[C@H](O[C@H]3[C@@H](O)C[C@H](O[C@H]4CC[C@@]5(C)[C@H](CC[C@@H]6[C@@H]5C[C@@H](O)[C@]5(C)[C@@H](C7=CC(=O)OC7)CC[C@]65O)C4)O[C@@H]3C)O[C@@H]2C)C[C@H](O)[C@@H]1O"
  GROUP_LABEL: "criterion not met"
- COMPOUND: "CC(C)Oc1ccc2c(=O)c(-c3ccccc3)coc2c1"
  GROUP_LABEL: "criterion met"
- COMPOUND: "CCNC1(C(N)=O)CCN(c2ncnc3c2nc(-c2ccccc2Cl)n3-c2ccc(Cl)cc2)CC1 [Otenabant (CP-945598) HCl]"
  GROUP_LABEL: "criterion met"
